system: human foreskin fibroblasts (HFF); experiment: Mammalian cell cytotoxicity screen; assay type: cell-based; details: Fibroblast, 24 h, read-out: HFF IC50
MEASURED_ATTRIBUTE: IC50

Problem: Report IC50 for "CC(C)(C)C1=CC(=NNC(=O)c2ccc(C#N)cc2)C=C(C(C)(C)C)C1=O" please.
Solution: > 100 µM

Problem: Also "CC1(C)CC(=NNC(=O)c2ccncc2)CC(C)(C)C1=O" , if possible.
Solution: > 100 µM

Problem: Also "Cc1ccc(C(=O)NN=C2C=C(C(C)(C)C)C(=O)C(C(C)(C)C)=C2)cc1" , if possible.
Solution: > 100 µM

Problem: Also "CC(C)(C)C1=CC(=NNC(=O)c2c[nH]cn2)C=C(C(C)(C)C)C1=O" , if possible.
Solution: > 100 µM

Problem: Also "CC(C)(C)C1=CC(=NNc2ccc([N+](=O)[O-])cc2[N+](=O)[O-])C=C(C(C)(C)C)C1=O" , if possible.
Solution: > 100 µM

Problem: Also "CC(C)(C)C1=CC(=NNC(=O)c2ccc(O)cc2)C=C(C(C)(C)C)C1=O" , if possible.
Solution: > 100 µM

Problem: Also "CC(C)(C)C1=CC(=NNC(=O)c2ccccc2)C=C(C(C)(C)C)C1=O" , if possible.
Solution: > 100 µM

Problem: Also "Cc1ccc(C(=O)ON=C2C=C(C(C)(C)C)C(=O)C(C(C)(C)C)=C2)cc1" , if possible.
Solution: > 100 µM

Problem: Also "CC(C)(C)C1=CC(=NNC(=O)c2ccc([N+](=O)[O-])cc2)C=C(C(C)(C)C)C1=O" , if possible.
Solution: > 100 µM

====

Answer each item with its documented microsomal CLint at 1 μM.
assay: Metabolic stability in mouse liver microsomes; format: in vitro ADME
# value in µL/min/mg; strip the unit string

Problem: Report microsomal CLint at 1 μM for CC(C)(C)C1=CC(=NNC(=O)c2ccc([N+](=O)[O-])cc2)C=C(C(C)(C)C)C1=O [KGW44] please.
Solution: 99

Problem: Also CC(C)(C)C1=CC(=NNc2ccc([N+](=O)[O-])cc2[N+](=O)[O-])C=C(C(C)(C)C)C1=O [KGW59] , if possible.
Solution: 46

====

experiment: Metabolic stability in human liver microsomes; type: in vitro ADME
Answer each item with its documented half-life at 1 μM.
# value in h; strip the unit string

Problem: Report half-life at 1 μM for "CC(C)(C)C1=CC(=NNC(=O)c2ccc([N+](=O)[O-])cc2)C=C(C(C)(C)C)C1=O" please.
Solution: 1.38

Problem: Also "CC(C)(C)C1=CC(=NNc2ccc([N+](=O)[O-])cc2[N+](=O)[O-])C=C(C(C)(C)C)C1=O" , if possible.
Solution: 1.85

====

test: Metabolic stability in mouse liver microsomes; format: in vitro ADME
MEASURED_ATTRIBUTE: half-life at 1 μM (min)
# value in min; strip the unit string

Problem: Report half-life at 1 μM for CC(C)(C)C1=CC(=NNC(=O)c2ccc([N+](=O)[O-])cc2)C=C(C(C)(C)C)C1=O [KGW44] please.
Solution: 9

Problem: Also CC(C)(C)C1=CC(=NNc2ccc([N+](=O)[O-])cc2[N+](=O)[O-])C=C(C(C)(C)C)C1=O [KGW59] , if possible.
Solution: 37
